Source listed as patent US20170305922A1.

biological target: Human CARM1 (PRMT4) (Homo sapiens); construct: Flag-CARM1-His was eluted with 200 ug/ml FLAG peptide in buffer A; experiment: CARM1 enzyme assay on peptide substrates (3H-SAM Flashplate); conditions: Biochemical assay; CARM1 0.25 nM, 3H-SAM 30 nM, peptide 250 nM; read-out: Biochem IC50
Sequence (Q86X55 1-585 isoform Q86X55-1): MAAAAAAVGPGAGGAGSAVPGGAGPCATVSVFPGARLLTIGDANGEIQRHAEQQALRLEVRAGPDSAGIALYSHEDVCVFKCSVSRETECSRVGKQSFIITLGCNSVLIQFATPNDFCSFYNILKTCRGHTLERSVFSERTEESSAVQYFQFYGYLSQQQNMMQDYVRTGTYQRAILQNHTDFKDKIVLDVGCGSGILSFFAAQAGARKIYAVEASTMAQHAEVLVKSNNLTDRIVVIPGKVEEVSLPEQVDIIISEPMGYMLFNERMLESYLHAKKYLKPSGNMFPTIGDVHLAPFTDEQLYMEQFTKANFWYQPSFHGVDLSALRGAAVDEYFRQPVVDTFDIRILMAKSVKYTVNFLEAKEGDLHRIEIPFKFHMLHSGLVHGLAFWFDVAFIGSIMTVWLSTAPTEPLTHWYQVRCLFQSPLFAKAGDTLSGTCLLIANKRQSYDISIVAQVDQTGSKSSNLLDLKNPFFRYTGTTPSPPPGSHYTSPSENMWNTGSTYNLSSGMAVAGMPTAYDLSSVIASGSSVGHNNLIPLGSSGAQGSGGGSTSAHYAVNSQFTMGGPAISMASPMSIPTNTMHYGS
outcome.measure: pIC50
API: returns pIC50 as number; meaning -log10 of concentration in mol/L.

Quick one: pIC50 for `CC[C@@H]1CN(c2nc(-c3cc(OC[C@H](O)CNC)ccc3Cl)nc(-c3c(C)noc3C)c2C)CCN1C(=O)OC` ?
8.43

Quick one: pIC50 for `CNC[C@@H](O)COc1ccc(Cl)c(-c2nc(CCC3CN(C(=O)OC)C3)c(C)c(-c3c(C)noc3C)n2)c1` ?
7.87

Quick one: pIC50 for `CNC[C@@H](O)COc1ccc(Cl)c(-c2nc(-c3c(C)c(Br)nn3C)c(C)c(N3CC4(CC(OC(C)C)C4)C3)n2)c1` ?
8.45

Quick one: pIC50 for `CNC[C@@H](O)COc1ccc(C(F)(F)F)c(-c2nc(-c3c(C)noc3C)c(C)c(N3CC4(CCOCC4)C3)n2)c1` ?
7.78
